B1: PKD2L1 (parent)
chain: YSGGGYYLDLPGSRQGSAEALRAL

variants of: B1; experiment: protein stability index of a GFP-peptide fusion (GPS, HEK-293T) (PSI 1-6); higher = more stable; settings: c terminus: a fixed tail appended;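 also: lentivirally expressed fusions sorted by FACS into six bins by GFP to DsRed ratio, PSI derived from sequencing read proportions per bin multiplied by bin number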
Below: a set of entries, each annotated with reported protein stability index.
// no unit string in output, number only

| Change | protein stability index |
| --- | --- |
| G5T | 1.96 |
| A18R | 1.71 |

Request: Look at this variant and give its reported protein stability index. E19M
Result: 2.09
